# system: human 11βHSD1 enzyme (Homo sapiens (Human), UniProt P28845)
# Sequence (P28845 whole entry): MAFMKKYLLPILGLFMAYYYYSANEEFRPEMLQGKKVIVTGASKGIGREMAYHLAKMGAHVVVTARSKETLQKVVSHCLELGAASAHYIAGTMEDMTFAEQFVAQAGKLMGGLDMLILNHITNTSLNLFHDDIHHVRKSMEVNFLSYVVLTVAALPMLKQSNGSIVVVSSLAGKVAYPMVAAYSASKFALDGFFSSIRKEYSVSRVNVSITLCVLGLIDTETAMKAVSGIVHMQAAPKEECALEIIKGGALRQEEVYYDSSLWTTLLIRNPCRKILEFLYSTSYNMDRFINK
# assay_text: biochemical
# condition_set: read-out: % inhibition of human 11-βHSD
So basically: inhibition at 30 µM at 90% or higher? That is yes (1). Lower than 90%? That is no (0).

Worked examples follow.
>  <compound>
CCCSc1nc(N2CCN(CC(=O)O)CC2)ccc1C(=O)NC1CCCCC1

>  <system>
human 11βHSD1 enzyme (Homo sapiens (Human), UniProt P28845)

>  <class_label>
no (0)

$$$$
>  <compound>
O=C(O)C[C@@H]1CCCN(c2ccc(C(=O)NC3CCCCC3)c(NCCc3ccccc3)n2)C1

>  <system>
human 11βHSD1 enzyme (Homo sapiens (Human), UniProt P28845)

>  <class_label>
no (0)

$$$$
>  <compound>
CCCSc1nc(N2CCC[C@@H](CC(=O)O)C2)ccc1C(=O)N1CCCC(C(F)(F)F)C1 (some centres unmarked)

>  <system>
human 11βHSD1 enzyme (Homo sapiens (Human), UniProt P28845)

>  <class_label>
yes (1)

$$$$
>  <compound>
CCCOc1nc(N2CCC[C@@H](CC(=O)O)C2)ccc1C(=O)N[C@H]1C2CC3CC1C[C@](OC(F)F)(C3)C2

>  <system>
human 11βHSD1 enzyme (Homo sapiens (Human), UniProt P28845)

>  <class_label>
yes (1)

$$$$

Given O=C(NC1CCCCC1)c1ccc(N2CCCC(C3(C(=O)O)CC3)C2)nc1SC1CCCC1 (centres unmarked) , state whether its inhibition at 30 µM is at least 90%. yes (1)

Given O=C(O)C[C@@H]1CCCN(c2ccc(C(=O)NC3CCCCC3)c(N3CCCCC3)n2)C1 , state whether its inhibition at 30 µM is at least 90%. yes (1)
